# target of assay: human Claudin18.2 (human)
# method description: cell-based or functional assay
parameter: CDC % Relative activity
Answer with the figure and its unit, nothing else.

Please review the entries below; each comes with its answer.
| binder | CDC % Relative activity |
| --- | --- |
| 413C12F8 (antibody, V domains shown) VH: DVQLVESGGGLVQPGGSRKLSCAASGFTFSGFGVHWIRQTPEKGLEWVAYIGSGSRPIYYADTVKGRFTISRDNPKNTLFLQMTSLRSEDTAMYFCARFYYGNSFDHWGQGTLVTVSA VL: DIVMTQSPSFLTVTAGEKVTMNCRSSQSLLNSGNQKNYLTWYQQRPGQPPKLLIYWASTRESGVPDRFTGSGSGTDFTLTISSVQAEDLALYYCQNAYSFPLTFGAGTKLELK | 70.9% |
| 232F1E4 (antibody, V domains shown) VH: QVQLKESGPGLVAPSQSLSITCTVSGFALTTYGVSWVRQPPGKGLEWLGVIWGDGSTHYHSALISRLSIRKDNSKSQVFLKLNSLQTDDTATYYCAKPGRGNAMDYWGQGTSVTVSS VL: DIVMSQSPSSLTVTAGEKVTMSCKSSQSLLNSGNQKNYLTWYQQKPGQSPKLLIYWASTRESGVPDRFTGSGSGTDFTLTISSMQAEDLAVYYCQNDYIYPLTFGAGTMLELK | 74.9% |

--- query ---
IN: Using the record for 203A6C9 (antibody, V domains shown) VH: QVQLKQSGPGLVQPSQSLSITCTVSGFSLTRYGVHWVRQSPGKGLEWLGVIWSGGNTDYNAAFISRLNIRKDNSKSQVFFKMNSLKPNDTAIYYCARAAYFGNSFDYWGQGTTLTVSS VL: DIVMTQSPSSLPVTAGEKVTMSCKSSQSLLNSGNQKNYLTWYQQKPGQPPKLLIYWASTRDSGVPDRFTGSGSGTDFTLTISSVQAEDLAVYYCQNNYIYPLTFGAGTKLELK , report its CDC % Relative activity.
OUT: 600%

Data provenance: patent US20220073643A1
